Cited source for all entries: ChEMBL document CHEMBL1126113

Give Ki for every item shown.
Tgt: Mu-type opioid receptor (Rattus norvegicus, UniProt P33535)
Sequence (P33535 whole entry): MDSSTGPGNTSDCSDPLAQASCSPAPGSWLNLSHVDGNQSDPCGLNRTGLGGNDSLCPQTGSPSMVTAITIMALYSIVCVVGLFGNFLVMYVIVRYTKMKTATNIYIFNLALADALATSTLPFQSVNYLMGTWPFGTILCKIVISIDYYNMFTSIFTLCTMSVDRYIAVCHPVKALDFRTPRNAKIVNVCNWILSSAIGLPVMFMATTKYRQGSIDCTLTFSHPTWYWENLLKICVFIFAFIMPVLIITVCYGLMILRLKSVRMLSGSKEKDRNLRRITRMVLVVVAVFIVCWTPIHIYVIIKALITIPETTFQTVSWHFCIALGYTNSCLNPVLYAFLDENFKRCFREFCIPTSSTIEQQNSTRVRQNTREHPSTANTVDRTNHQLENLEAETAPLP
Give just the number in nM; leave the unit off.

Lab book: Ki of CC(C)[C@H](NC(=O)[C@H](CC(=O)O)NC(=O)[C@H](Cc1ccc(F)cc1)NC(=O)[C@@H](C)NC(=O)[C@@H](N)Cc1ccc(O)cc1)C(=O)N[C@H](C(=O)NCC(N)=O)C(C)C noted as 554

Lab book: Ki of CC(C)[C@H](NC(=O)[C@H](CC(=O)O)NC(=O)[C@H](Cc1ccc(I)cc1)NC(=O)[C@@H](C)NC(=O)[C@@H](N)Cc1ccc(O)cc1)C(=O)N[C@H](C(=O)NCC(N)=O)C(C)C noted as 1410

Lab book: Ki of CC(C)[C@H](NC(=O)[C@H](CC(=O)O)NC(=O)[C@H](Cc1ccc(Cl)cc1)NC(=O)[C@@H](C)NC(=O)[C@@H](N)Cc1ccc(O)cc1)C(=O)N[C@H](C(=O)NCC(N)=O)C(C)C noted as 287

Lab book: Ki of CC(C)[C@H](NC(=O)[C@H](CC(=O)O)NC(=O)[C@H](Cc1ccc(Br)cc1)NC(=O)[C@@H](C)NC(=O)[C@@H](N)Cc1ccc(O)cc1)C(=O)N[C@H](C(=O)NCC(N)=O)C(C)C noted as 4790

----------
Tgt: Delta-type opioid receptor (Rattus norvegicus, UniProt P33533)
Sequence (P33533 whole entry): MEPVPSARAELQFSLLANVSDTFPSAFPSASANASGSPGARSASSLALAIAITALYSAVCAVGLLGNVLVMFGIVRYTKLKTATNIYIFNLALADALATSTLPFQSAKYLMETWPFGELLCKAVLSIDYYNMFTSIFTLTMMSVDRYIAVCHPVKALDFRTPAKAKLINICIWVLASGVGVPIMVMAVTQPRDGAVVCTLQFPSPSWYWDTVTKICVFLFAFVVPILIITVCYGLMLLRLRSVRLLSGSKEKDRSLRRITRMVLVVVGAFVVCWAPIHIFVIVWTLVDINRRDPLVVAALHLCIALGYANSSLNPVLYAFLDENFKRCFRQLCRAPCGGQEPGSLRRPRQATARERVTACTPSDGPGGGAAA
Test Details: Binding affinity against opioid receptor delta in rats by displacing [3H]DPDPE
Quantity: Ki (nM)
Give just the number in nM; leave the unit off.

Lab book: Ki of CC(C)[C@H](NC(=O)[C@H](CC(=O)O)NC(=O)[C@H](Cc1ccc(N)cc1)NC(=O)[C@@H](C)NC(=O)[C@@H](N)Cc1ccc(O)cc1)C(=O)N[C@H](C(=O)NCC(N)=O)C(C)C noted as 33.9

Lab book: Ki of CC(C)[C@H](NC(=O)[C@H](CC(=O)O)NC(=O)[C@H](Cc1ccc(I)cc1)NC(=O)[C@@H](C)NC(=O)[C@@H](N)Cc1ccc(O)cc1)C(=O)N[C@H](C(=O)NCC(N)=O)C(C)C noted as 1.62

Lab book: Ki of CC(C)[C@H](NC(=O)[C@H](CC(=O)O)NC(=O)[C@H](Cc1ccc([N+](=O)[O-])cc1)NC(=O)[C@@H](C)NC(=O)[C@@H](N)Cc1ccc(O)cc1)C(=O)N[C@H](C(=O)NCC(N)=O)C(C)C noted as 71.8

----------
Quantity: Ki
Write down the value, and be sure its unit follows.

Record CC(C)[C@H](NC(=O)[C@H](CC(=O)O)NC(=O)[C@H](Cc1ccc([N+](=O)[O-])cc1)NC(=O)[C@@H](C)NC(=O)[C@@H](N)Cc1ccc(O)cc1)C(=O)N[C@H](C(=O)NCC(N)=O)C(C)C ; system Mu-type opioid receptor (Rattus norvegicus); Ki = 2390 nM

Record CC(C)[C@H](NC(=O)[C@H](CC(=O)O)NC(=O)[C@H](Cc1ccccc1)NC(=O)[C@@H](C)NC(=O)[C@@H](N)Cc1ccc(O)cc1)C(=O)N[C@H](C(=O)NCC(N)=O)C(C)C ; system Mu-type opioid receptor (Rattus norvegicus); Ki = 272 nM

Record CC(C)[C@H](NC(=O)[C@H](CCC(=O)O)NC(=O)[C@H](Cc1ccc(N)cc1)NC(=O)[C@@H](C)NC(=O)[C@@H](N)Cc1ccc(O)cc1)C(=O)N[C@H](C(=O)NCC(N)=O)C(C)C ; system Mu-type opioid receptor (Rattus norvegicus); Ki = 2460 nM

Record CC(C)[C@H](NC(=O)[C@H](CCC(=O)O)NC(=O)[C@H](Cc1ccc([N+](=O)[O-])cc1)NC(=O)[C@@H](C)NC(=O)[C@@H](N)Cc1ccc(O)cc1)C(=O)N[C@H](C(=O)NCC(N)=O)C(C)C ; system Mu-type opioid receptor (Rattus norvegicus); Ki = 1430 nM

Record CC(C)[C@H](NC(=O)[C@H](CC(=O)O)NC(=O)[C@H](Cc1ccc(N)cc1)NC(=O)[C@@H](C)NC(=O)[C@@H](N)Cc1ccc(O)cc1)C(=O)N[C@H](C(=O)NCC(N)=O)C(C)C ; system Mu-type opioid receptor (Rattus norvegicus); Ki = 506 nM
